system.under.test: Mitogen-activated protein kinase 1 (Homo sapiens, UniProt P28482)
Sequence (P28482 whole entry): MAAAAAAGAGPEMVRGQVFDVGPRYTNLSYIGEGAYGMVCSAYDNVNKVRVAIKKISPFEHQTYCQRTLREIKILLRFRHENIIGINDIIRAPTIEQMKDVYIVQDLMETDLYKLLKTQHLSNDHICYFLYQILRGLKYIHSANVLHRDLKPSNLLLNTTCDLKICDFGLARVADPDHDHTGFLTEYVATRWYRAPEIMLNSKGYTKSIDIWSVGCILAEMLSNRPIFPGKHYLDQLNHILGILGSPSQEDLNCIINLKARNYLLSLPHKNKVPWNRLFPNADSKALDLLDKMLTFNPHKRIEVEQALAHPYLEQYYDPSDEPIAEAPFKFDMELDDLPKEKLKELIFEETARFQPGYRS
protocol: Inhibition of ERK2
pIC50: −log10 of the molar value.
observed.property: pIC50

1. CNC(=O)c1nn(C)c2c1C(C)(C)Cc1cnc(Nc3ccc(N4CCN(C)CC4)cc3)nc1-2 [MILCICLIB] ... < 5.00

----------
system.under.test: MAP kinase-activated protein kinase 2 (Homo sapiens, UniProt P49137)
Sequence (P49137 whole entry): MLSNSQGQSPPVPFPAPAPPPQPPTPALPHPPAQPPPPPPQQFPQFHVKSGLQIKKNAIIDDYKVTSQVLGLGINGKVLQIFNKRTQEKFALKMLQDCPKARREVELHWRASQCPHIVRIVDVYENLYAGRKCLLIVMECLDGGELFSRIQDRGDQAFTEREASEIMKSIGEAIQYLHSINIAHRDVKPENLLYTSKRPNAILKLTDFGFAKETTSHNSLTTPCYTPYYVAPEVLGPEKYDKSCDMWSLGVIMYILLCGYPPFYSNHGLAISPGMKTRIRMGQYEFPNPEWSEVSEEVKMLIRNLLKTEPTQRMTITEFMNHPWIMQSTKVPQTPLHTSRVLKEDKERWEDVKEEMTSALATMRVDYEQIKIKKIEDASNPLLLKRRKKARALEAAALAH
protocol: Inhibition of MAPKAPK2
observed.property: IC50

1) CNC(=O)c1nn(C)c2c1C(C)(C)Cc1cnc(Nc3ccc(N4CCN(C)CC4)cc3)nc1-2 [MILCICLIB] ... > 10 µM

----------
system.under.test: Glycogen synthase kinase-3 beta (Homo sapiens, UniProt P49841)
Sequence (P49841 whole entry): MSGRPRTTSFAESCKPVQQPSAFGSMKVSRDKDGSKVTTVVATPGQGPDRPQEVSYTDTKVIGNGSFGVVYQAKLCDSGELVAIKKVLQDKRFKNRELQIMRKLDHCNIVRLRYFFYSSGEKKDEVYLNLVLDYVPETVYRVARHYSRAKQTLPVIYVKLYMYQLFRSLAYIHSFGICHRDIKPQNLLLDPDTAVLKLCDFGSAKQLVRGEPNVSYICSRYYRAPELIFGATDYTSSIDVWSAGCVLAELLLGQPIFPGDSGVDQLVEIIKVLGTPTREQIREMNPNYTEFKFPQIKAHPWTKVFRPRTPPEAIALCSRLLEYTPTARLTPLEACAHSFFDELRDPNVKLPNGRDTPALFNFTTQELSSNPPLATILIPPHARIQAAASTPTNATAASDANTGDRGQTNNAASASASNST
protocol: Inhibition of GSK3-beta
observed.property: IC50

1) CNC(=O)c1nn(C)c2c1C(C)(C)Cc1cnc(Nc3ccc(N4CCN(C)CC4)cc3)nc1-2 [MILCICLIB] ... > 10 µM

----------
protocol: Oral bioavailability in fasted nu/nu mouse at 10 mg/kg by LC/MS/MS analysis
Assay type: ADME, organism-based
cond: in vivo
observed.property: bioavailability (%)

1) CNC(=O)c1nn(C)c2c1C(C)(C)Cc1cnc(Nc3ccc(N4CCN(C)CC4)cc3)nc1-2.Cl ... 85
2) CNC(=O)c1nn(C)c2c1C(C)(C)Cc1cnc(Nc3ccc(CN(C)C)cc3)nc1-2.Cl ... 28
3) CNC(=O)c1nn(C)c2c1C(C)(C)Cc1cnc(Nc3ccc(OC4CCN(C)CC4)cc3)nc1-2.Cl ... 38
4) CNC(=O)c1nn(C)c2c1C(C)(C)Cc1cnc(Nc3ccc(CN4CCN(C)CC4)cc3)nc1-2.Cl ... 42

----------
protocol: Solubility at pH 7
Format: physicochemical
cond: buffer
Quick list: solubility per entry.
observed.property: solubility (µM)

1. CNC(=O)c1nn(C)c2c1C(C)(C)Cc1cnc(Nc3ccc(OC4CCN(C)CC4)cc3)nc1-2 ... 183
2. CNC(=O)c1nn(C)c2c1C(C)(C)Cc1cnc(Nc3ccc(N4CCN(C)CC4)cc3)nc1-2 ... 191
3. CNC(=O)c1nn(C)c2c1C(C)(C)Cc1cnc(Nc3cccc(OC4CCN(C)CC4)c3)nc1-2 ... 160
4. Cn1nc(C(=O)NC2CC2)c2c1-c1nc(Nc3ccccc3)ncc1CC2 ... 1
5. CNC(=O)c1nn(C)c2c1C(C)(C)Cc1cnc(Nc3cccc(CN(C)C)c3)nc1-2 ... 193
6. Cn1nc(C(=O)Nc2ccccc2)c2c1-c1nc(Nc3ccccc3)ncc1CC2 ... 1
7. CNC(=O)c1nn(C)c2c1C(C)(C)Cc1cnc(Nc3ccc(CN4CCN(C)CC4)cc3)nc1-2 ... 170

----------
system.under.test: Mitogen-activated protein kinase 11 (Homo sapiens, UniProt Q15759)
Sequence (Q15759 whole entry): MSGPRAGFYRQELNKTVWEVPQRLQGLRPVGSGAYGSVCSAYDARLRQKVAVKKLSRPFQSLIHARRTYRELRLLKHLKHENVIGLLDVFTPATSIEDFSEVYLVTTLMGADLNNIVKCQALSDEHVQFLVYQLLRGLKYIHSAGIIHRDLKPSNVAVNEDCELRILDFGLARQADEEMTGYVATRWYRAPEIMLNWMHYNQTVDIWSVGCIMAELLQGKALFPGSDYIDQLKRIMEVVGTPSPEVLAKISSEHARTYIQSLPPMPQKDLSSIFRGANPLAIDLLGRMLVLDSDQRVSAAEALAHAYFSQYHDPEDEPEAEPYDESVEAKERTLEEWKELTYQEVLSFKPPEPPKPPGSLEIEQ
protocol: Inhibition of P38beta
observed.property: IC50

1) CNC(=O)c1nn(C)c2c1C(C)(C)Cc1cnc(Nc3ccc(N4CCN(C)CC4)cc3)nc1-2 ... > 10 µM

----------
protocol: Inhibition of CK2
observed.property: IC50

1) CNC(=O)c1nn(C)c2c1C(C)(C)Cc1cnc(Nc3ccc(N4CCN(C)CC4)cc3)nc1-2 ... > 10 µM

----------
system.under.test: Tyrosine-protein kinase Lyn (Homo sapiens, UniProt P07948)
Sequence (P07948 whole entry): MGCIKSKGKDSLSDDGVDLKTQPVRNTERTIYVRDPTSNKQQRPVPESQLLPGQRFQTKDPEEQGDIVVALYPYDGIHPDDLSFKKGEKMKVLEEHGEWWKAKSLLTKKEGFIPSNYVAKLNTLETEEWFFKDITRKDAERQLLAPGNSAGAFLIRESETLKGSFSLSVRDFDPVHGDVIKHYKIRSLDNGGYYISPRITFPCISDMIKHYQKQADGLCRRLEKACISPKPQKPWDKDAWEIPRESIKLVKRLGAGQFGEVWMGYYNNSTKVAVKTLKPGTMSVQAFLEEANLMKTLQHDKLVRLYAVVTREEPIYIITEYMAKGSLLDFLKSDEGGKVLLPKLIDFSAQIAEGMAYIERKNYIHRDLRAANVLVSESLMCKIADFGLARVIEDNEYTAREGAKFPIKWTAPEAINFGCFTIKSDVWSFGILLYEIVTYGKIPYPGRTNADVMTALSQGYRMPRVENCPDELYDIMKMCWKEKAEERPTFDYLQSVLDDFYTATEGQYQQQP
observed.property: IC50

1) CNC(=O)c1nn(C)c2c1C(C)(C)Cc1cnc(Nc3ccc(N4CCN(C)CC4)cc3)nc1-2 ... > 10 µM
